biological target: SMARCA2^BD protein (Homo sapiens, UniProt P51531, I1395R); construct: His-SMARCA2^BD(S1377-Q1486); His6 (leader mhhhhhhgslvpr\gs, with thrombin-type site lvpr\gs) (N); made in house; assay: Fluorescence polarization (FP) detection, SMARCA2 bromodomain; format: binding; conditions: Table 1; probe 10 nM, SMARCA2^BD protein 50 nM, 2 h room temperature
Sequence (P51531 1377-1486 isoform P51531-2 I1395R): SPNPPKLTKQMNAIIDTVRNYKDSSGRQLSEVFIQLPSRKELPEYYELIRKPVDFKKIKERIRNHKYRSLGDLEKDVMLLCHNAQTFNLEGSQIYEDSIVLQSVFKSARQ
The label is TRUE for IC50 below 200 nM and FALSE for IC50 equal to or exceeding 200 nM.

Use the examples below as a reference point.
| COMPOUND | ANSWER_LABEL |
| --- | --- |
| Nc1nnc(-c2ccccc2O)cc1C#CC1CCC2(CC1)CNC2 [Compound 5c] | TRUE |
| Nc1nnc(-c2ccccc2O)cc1C#CC1CC2(CCNCC2)C1 [Compound 10c] | TRUE |
| CC(=O)N1CCN(c2cc(-c3ccccc3O)nnc2N)CC1 [Control compound, reference compound] | FALSE |

Incoming: Is IC50 strictly under 200 nM for the entry Nc1nnc(-c2ccccc2O)cc1C#CC1CCNCC1 [Compound 1c] ?
Outgoing: TRUE

Incoming: Does this compound meet the criterion IC50 < 200 nM? Nc1nnc(-c2ccccc2O)cc1C#CC1CNC1 [Compound 3c]
Outgoing: FALSE

Incoming: Field: below-cutoff. Rule: recorded IC50 strictly less than 200 nM. Subject: Nc1nnc(-c2ccccc2O)cc1C#CC1CCNC1 (centres unmarked) [Compound 2c]
Outgoing: FALSE

Incoming: Answer whether the compound Nc1nnc(-c2ccccc2O)cc1C#CC1CC2(CNC2)C1 [Compound 4c] has IC50 strictly less than 200 nM
Outgoing: TRUE

---

Each item that follows carries a reported pIC50.
tested on: MCF-7 cell line; test: Cell proliferation assay (CCK-8), MCF-7; type: cell-based; details: Homo sapiens, MCF7, 168 h; Table 1; 7 days incubation with compound; read-out: MCF-7 cell line CCK8 IC50
Give only the number. pIC50 is defined as minus log10 of concentration in molar units.

Consider the following illustrative entries.
| MOLECULE | ASSAYED_SYSTEM | pIC50 |
| --- | --- | --- |
| Nc1nnc(-c2ccccc2O)cc1C#CC1CCNC1 (centres unmarked) | MCF-7 cell line | 5.33 |
| Nc1nnc(-c2ccccc2O)cc1C#CC1CCC2(CCNCC2)CC1 | MCF-7 cell line | 5.43 |
| Nc1nnc(-c2ccccc2O)cc1C#CC1CCNCC1 | MCF-7 cell line | 4.92 |

Incoming: Identify the reported pIC50 for the following entry. `Nc1nnc(-c2ccccc2O)cc1C#CC1CCC2(CC1)CNC2`
Outgoing: 5.12

Incoming: Provide pIC50 value for the following molecule: `Nc1nnc(-c2ccccc2O)cc1C#CC1CC2(CNC2)C1`
Outgoing: 4.91

---

target: SMARCA4^BD protein (Homo sapiens, UniProt P51532); construct: His6 (leader mhhhhhhgslvpr\gs, with thrombin-type site lvpr\gs) (N); made in house; assay: Fluorescence polarization (FP) detection, SMARCA4 bromodomain; assay type: binding; settings: Table 2; probe 10 nM, SMARCA4^BD protein 120 nM, 2 h room temperature
Sequence (P51532 1448-1575): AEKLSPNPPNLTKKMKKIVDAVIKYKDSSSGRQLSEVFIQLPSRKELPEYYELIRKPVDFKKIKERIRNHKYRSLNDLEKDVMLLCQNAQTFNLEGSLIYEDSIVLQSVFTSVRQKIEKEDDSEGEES
This listing pairs compounds with measured IC50.
Give the value, in units of nM, as a plain number.

Worked set:
| COMPOUND | READING_UNIT | IC50 |
| --- | --- | --- |
| COC1(C#Cc2cc(-c3ccccc3O)nnc2N)CCC(N2CCCC2)CC1 (stereo not shown) [Compound 15] | nM | 210 |
| CN(C)[C@H]1[C@@H]2CN(c3cc(-c4ccccc4O)nnc3N)C[C@@H]21 [Compound 20] | nM | 120 |

As a next step, examine the compound that follows.
Incoming: Param request: IC50 | system SMARCA4^BD protein (Homo sapiens, UniProt P51532) | item CC(=O)N[C@H]1[C@@H]2CN(c3cc(-c4ccccc4O)nnc3N)C[C@@H]21 [Compound 21]
Outgoing: 250
